# credit: the METLIN SMRT retention time set (Domingo-Almenara et al. 2019)

- Assay Remarks: gradient 5% acetonitrile 3 min, to 50% in 2 min, to 85% in 15 min, held 3 min, 100 µL/min
- Details: column: Zorbax Extend-C18 2.1 x 50 mm; eluents: water / acetonitrile, 0.1% formic acid
So basically: RP-LC retention time at 600 s or higher? That is T. Lower than 600 s? That is F.

> print(dat)
                                   compound  class
1  CN1C(=O)c2cccnc2Sc2cc(C(=O)NCc3ccc(F)cc3)ccc21      T
2  CCN1CCN(CCCNC(=O)c2noc(C)c2Cn2nc(C)cc2C)CC1      F
3     CCOC(=O)CCC(=O)Nc1nnc(-c2sc(C)nc2C)o1      T
4  COc1ccccc1N1CCN(c2cc(SCC(=O)NCc3ccccc3)ncn2)CC1      T
5  O=C(c1ccoc1)N1CCC(c2nc(-c3ccccc3)no2)C1 (stereo not given)      T

* * *

- Assay Remarks: gradient 5% acetonitrile 3 min, to 50% in 2 min, to 85% in 15 min, held 3 min, 100 µL/min
- Details: column: Zorbax Extend-C18 2.1 x 50 mm; eluents: water / acetonitrile, 0.1% formic acid
Reported values of RP-LC retention time for individual entries
Measured Endpoint: RP-LC retention time

> print(dat)
                                   molecule  recorded.value
1      O=C(NCc1ccccn1)C(=O)Nc1ccc(F)c(Cl)c1           632 s
2  CCCn1c(C2CCN(C(=O)Nc3cccc(C)c3)C2)nc2cccnc21 (centres undefined)           713 s
3  CCc1ccc(C2=C(C)C(N3CCCN(C(=O)CC(C)(C)C)CC3)=NS2(=O)=O)cc1           949 s
4  Cc1nnc(-c2ccc(=O)n(CC(=O)NCc3ccc(F)c(Cl)c3)c2)o1           672 s
5  CCCS(=O)(=O)N1CC(=O)N(c2ccccc2F)C(C)(C(=O)NC2CCCCCCC2)C1 (centres undefined)           997 s
6  Cc1cc(C)c2c(N(C)C)nc(C(=O)NC(C)c3ccccn3)nc2n1 (centres undefined)           559 s
7      CCc1nc2c(NC(=O)NCc3ccc(F)cc3)cccn2n1           788 s
8  Cc1nc(N2CCOCC2)c2c(C(=O)N3CCN(c4cccc(Cl)c4)CC3)c(C)oc2n1           917 s
9  COc1ccc(S(=O)(=O)N2C[C@@H]3C[C@H]2C[C@@H]3NC(=O)c2ccccc2)cc1Cl           861 s

* * *

- Assay Remarks: gradient 5% acetonitrile 3 min, to 50% in 2 min, to 85% in 15 min, held 3 min, 100 µL/min
- Details: column: Zorbax Extend-C18 2.1 x 50 mm; eluents: water / acetonitrile, 0.1% formic acid
# note: boundary value 800 s maps to FALSE; RP-LC retention time below it maps to TRUE

> print(dat)
                                   compound  class
1  Cc1cc(F)ccc1N1C(=O)CN(S(C)(=O)=O)CC1(C)C(=O)NC1CCCCCCC1 (centres undefined)  FALSE
2  O=C(Cn1c(=O)n(Cc2ccc3c(c2)OCO3)c(=O)c2ncccc21)N1CCCc2ccccc21  FALSE
3  Cc1nc(-c2noc(-c3cccnc3)n2)cn1CC(=O)NC1CCCCC1   TRUE
4  CO[C@H]1C(=O)N(C(C)C)[C@H]1C1CCN(C(=O)c2sc(C)nc2C)CC1   TRUE
5  Cc1c(Cl)cccc1S(=O)(=O)N1CCc2nc(-c3ccccc3)ncc2C1  FALSE
6  O=C(Cn1cccc(-c2nc(-c3ccc(Br)cc3)no2)c1=O)NCc1ccc(F)cc1  FALSE
7  Clc1cccc(-c2noc3ncnc(N4CCN(c5ccccn5)CC4)c23)c1   TRUE
8       CCOC(=O)Cn1c(-c2nnc(C)o2)cc2ccccc21  FALSE
